# Target Entity: recombinant integrase (Human immunodeficiency virus type 1 group M subtype B)
# Construct: with the aid of recombinant integrase
# Protocol: In vitro maturation reaction with recombinant integrase
Measure Name: pIC50
Numbers only, as −log10 of the molar value.

Value of measured pIC50 for the entry "C[C@@H]1CCO[C@H]2Cn3cc(C(=O)NCc4ccc(F)cc4F)c(=O)c(O)c3C(=O)N12" : 5.70

----------
# System: viral integration
# Protocol: Inhibition of viral integration by INSTI (Example 4)
# Type: cell-based, HIV-1
# Experimental Setup: Human immunodeficiency virus 1, read-out: IC50 for inhibition of viral integration
Measure Name: pIC50
Give bare numbers, as −log10 of the molar value.

Consider the following illustrative entries.
Cc1nnc(C(=O)NC(C)(C)c2nc(C(=O)NCc3ccc(F)cc3)c(O)c(=O)n2C)o1 = 8.10
COc1cc2c(cc1Cc1cccc(Cl)c1F)c(=O)c(C(=O)O)cn2[C@H](CO)C(C)C = 8.70

Value of measured pIC50 for the entry "C[C@@H]1CCO[C@H]2Cn3cc(C(=O)NCc4ccc(F)cc4F)c(=O)c(O)c3C(=O)N12" : 8.70

Origin of the recorded values: patent US20150232954A1
